- Test summary: gradient 5% acetonitrile 3 min, to 50% in 2 min, to 85% in 15 min, held 3 min, 100 µL/min
- Test conditions: column: Zorbax Extend-C18 2.1 x 50 mm; eluents: water / acetonitrile, 0.1% formic acid
Response field class: enum, chosen by comparing RP-LC retention time against lower band = under 700 s, central band = from 700 s up to 900 s, upper band = 900 s and over

{"Compound": "CCC1CCCCN1C(=O)c1cnc2nc(C)ccc2c1Nc1ccc(OC)cc1OC (stereo not given)", "Class assignment": "lower band"}
{"Compound": "CCOc1ccccc1-c1noc(Cn2c(=O)n(-c3cccc(F)c3)c(=O)c3sccc32)n1", "Class assignment": "upper band"}
{"Compound": "COc1ccc(OC)c(-c2csc(-c3nnn(-c4ccccc4)c3N)n2)c1", "Class assignment": "upper band"}
{"Compound": "Cn1cnc(S(=O)(=O)N2CCC(c3noc(-c4ccncc4)n3)C2)c1 (stereo not given)", "Class assignment": "lower band"}
{"Compound": "CCC(=O)NCc1csc(C2CCN(C(=O)c3ccc(Br)cc3)CC2)n1", "Class assignment": "central band"}
{"Compound": "CC1CCN(C(=O)CCNc2c(-c3ccc(F)cc3)nc3cnccn23)CC1", "Class assignment": "central band"}
{"Compound": "CCc1ccc(C(C)NS(=O)(=O)c2c(C)c(-c3nnc(C4CCC4)o3)n(C)c2C)cc1 (stereo not given)", "Class assignment": "upper band"}
{"Compound": "Cc1ccc2c(c1)C(=O)NC1(CCN(C(=O)c3cc(F)cc(F)c3)CC1)N2C", "Class assignment": "central band"}
{"Compound": "Cc1cccc(-n2c(=O)c3c(cc(C)n3C)n(CC(=O)Nc3ccc(F)c(Cl)c3)c2=O)c1", "Class assignment": "upper band"}

====

- Test summary: gradient 5% acetonitrile 3 min, to 50% in 2 min, to 85% in 15 min, held 3 min, 100 µL/min
- Test conditions: column: Zorbax Extend-C18 2.1 x 50 mm; eluents: water / acetonitrile, 0.1% formic acid

{"Compound": "CCOCc1nc2c(N)nc3ccccc3c2n1CC(C)(C)O", "RP-LC retention time, s": 662}
{"Compound": "COc1ccc(S(=O)(=O)N2CCC(c3ccncc3)CC2)cc1Cl", "RP-LC retention time, s": 667}
{"Compound": "CSc1ccc(CNC(=O)Cc2nnc(-c3ccc4ncccc4c3)o2)cc1", "RP-LC retention time, s": 716}
{"Compound": "O=C(Nc1cnc(N2CCCC2)nc1)c1ccc(F)c(Cl)c1", "RP-LC retention time, s": 804}
{"Compound": "CC1(C(=O)NCc2ccccc2)CCN(C(=O)Nc2cccc(C(F)(F)F)c2)CC1", "RP-LC retention time, s": 919}
{"Compound": "CCOC(=O)C1CCN(C(=O)C2CCCN(c3nc4cccnc4n(CC)c3=O)C2)CC1 (configuration not stated)", "RP-LC retention time, s": 969}
{"Compound": "O=C(c1ccc(Br)o1)N1CC2CN(S(=O)(=O)c3ccccc3)CC(C1)O2", "RP-LC retention time, s": 781}
{"Compound": "COc1cccc(C(=O)NCc2nn(C)c3ccccc23)c1", "RP-LC retention time, s": 779}
{"Compound": "COc1ccc(Nc2c(C(=O)N3CCC(C)CC3)cnc3nc(C)ccc23)cc1OC", "RP-LC retention time, s": 629}
{"Compound": "Cc1cnn(CCC(=O)NC2CCN(c3ccc(=O)n(CC4CC4)n3)C2)c1 (configuration not stated)", "RP-LC retention time, s": 654}
{"Compound": "Cc1cc(=O)n(CC(=O)NCc2ccccc2Cl)c(N2CCOCC2)n1", "RP-LC retention time, s": 662}
{"Compound": "COc1ccccc1N1CCN(C(=O)CC(C)S(=O)(=O)c2ccc3c(c2)CCN3C(C)=O)CC1 (configuration not stated)", "RP-LC retention time, s": 754}
{"Compound": "O=C(Nc1cnc(N2CCCCCC2)nc1)c1cc(F)cc(F)c1", "RP-LC retention time, s": 1020}
{"Compound": "Cn1cc2nc(SCC(=O)Nc3ccc(Br)cc3)n(CC3CC3)c(=O)c2n1", "RP-LC retention time, s": 905}
{"Compound": "Cc1cc(OCC(=O)Nc2ccc(F)cc2)nc(N2CCN(c3ccccc3)CC2)n1", "RP-LC retention time, s": 823}
{"Compound": "Cn1cccc1C(=O)N1CCC(c2noc(-c3ccncc3)n2)C1 (configuration not stated)", "RP-LC retention time, s": 720}
{"Compound": "CCN1C(=O)C2(CCN(C(=O)c3c(C)noc3C)CC2)c2ccccc21", "RP-LC retention time, s": 785}
{"Compound": "CCCN1C(=O)CCc2cc(NS(=O)(=O)c3ccc(Cl)c(Cl)c3)ccc21", "RP-LC retention time, s": 983}
{"Compound": "C=CC(=O)Nc1cccc(Sc2nc(Nc3ccc(N4CCN(C)CC4)cc3)ncc2Cl)c1", "RP-LC retention time, s": 754}
{"Compound": "CC(=O)N1CCCc2cc(S(=O)(=O)CCC(=O)Nc3cc(C)ccc3C)ccc21", "RP-LC retention time, s": 758}
{"Compound": "COC(=O)c1ccsc1NC(=O)c1c[nH]c2ccccc12", "RP-LC retention time, s": 882}
{"Compound": "O=S(=O)(c1ccc2nncn2c1)N(Cc1cccc(F)c1)c1ccc(F)cc1", "RP-LC retention time, s": 857}
